ASSAY PROTOCOL: Preliminary pharmacokinetics in SD rats
Assay type: in vivo
PROTOCOL CONDITIONS: male, SD, rat, plasma, po, 10 mg/kg, p.o. 10 mg/kg, 1 h; read-out: Concentration of BH in rat plasma, individual rats No1-No3
PROPERTY NAME: concentration at 1 h (ng/mL)
Please state the figure in ng/mL; there is no need to write the unit.

**Q:** Please look at this molecule and report its concentration at 1 h: CC1=CC(=O)[C@@H](O)[C@]2(C)[C@H]3[C@@H](O)[C@H](O)[C@@]4(CO)OC[C@@]35[C@@H](C[C@@H]12)OC(=O)[C@H](O)[C@]54O
**A:** 154

* * *

ASSAY PROTOCOL: Preliminary pharmacokinetics in SD rats
Type: in vivo
PROTOCOL CONDITIONS: male, SD, rat, plasma, iv, 2 mg/kg, rat, i.v.; read-out: MRT (0-∞), individual rats No1-No3
PROPERTY NAME: MRT inf
Remember to quote the unit after the number.

**Q:** Fill in MRT inf for record CC1=CC(=O)[C@@H](O)[C@]2(C)[C@H]3[C@@H](O)[C@H](O)[C@@]4(CO)OC[C@@]35[C@@H](C[C@@H]12)OC(=O)[C@H](O)[C@]54O
**A:** 6.47 h

* * *

ASSAY PROTOCOL: Preliminary pharmacokinetics in SD rats
Format: in vivo
PROTOCOL CONDITIONS: male, SD, rat, plasma, po, 10 mg/kg, p.o. 10 mg/kg, 0.25 h; read-out: Concentration of BH in rat plasma, Mean
PROPERTY NAME: concentration at 0.25 h (ng/mL)
// note: answer is a bare numeric in ng/mL

**Q:** Answer with the recorded concentration at 0.25 h for the molecule listed here: CC1=CC(=O)[C@@H](O)[C@]2(C)[C@H]3[C@@H](O)[C@H](O)[C@@]4(CO)OC[C@@]35[C@@H](C[C@@H]12)OC(=O)[C@H](O)[C@]54O [BH, Bruceine H]
**A:** 11.8

* * *

ASSAY PROTOCOL: Preliminary pharmacokinetics in SD rats
Format: in vivo
PROTOCOL CONDITIONS: male, SD, rat, plasma, iv, 2 mg/kg, i.v. 2 mg/kg, 4 h; read-out: Concentration of BH in rat plasma, individual rats No1-No3
PROPERTY NAME: concentration at 4 h (ng/mL)
Write the value in ng/mL as a bare number.

**Q:** Report measured concentration at 4 h; entry is CC1=CC(=O)[C@@H](O)[C@]2(C)[C@H]3[C@@H](O)[C@H](O)[C@@]4(CO)OC[C@@]35[C@@H](C[C@@H]12)OC(=O)[C@H](O)[C@]54O
**A:** 58

* * *

ASSAY PROTOCOL: Preliminary pharmacokinetics in SD rats
Format: in vivo
PROTOCOL CONDITIONS: male, Sprague-Dawley (SD), rat, plasma, po, 10 mg/kg, rat, p.o.; read-out: AUC (0-∞), individual rats No1-No3
PROPERTY NAME: AUC(0-inf) (ng·h/mL)
Kindly answer with a numeric value in ng·h/mL, unit omitted.

**Q:** Tell us which AUC(0-inf) value is on record for CC1=CC(=O)[C@@H](O)[C@]2(C)[C@H]3[C@@H](O)[C@H](O)[C@@]4(CO)OC[C@@]35[C@@H](C[C@@H]12)OC(=O)[C@H](O)[C@]54O
**A:** 1070
